Listed next: entries and their corresponding Ratio Ki.
- Species on record: Cavia porcellus
- experiment-description: Selectivity ratio of Ki for displacement of [3H]-DTG from sigma2 receptor in guinea pig brain membrane to Ki for displacement of [3H]-(+)-pentazocine from sigma1 receptor in guinea pig brain membrane
- Assay type: cell membranes
API note: the answer field is a bare number with no unit suffix.

>>> measured_number("O=C(CCCCC1CCSS1)N1CCN(Cc2ccc(F)cc2)CC1 (stereo unspecified)")
448
>>> measured_number("O=C(CCCCC1CCSS1)OC1CCN(Cc2ccc(F)cc2)CC1 (stereo unspecified)")
1580
>>> measured_number("COc1ccc(CN2CCC(OC(=O)CCCCC3CCSS3)CC2)cc1 (stereo unspecified)")
484
>>> measured_number("COc1ccc(CN2CCN(C(=O)CCCCC3CCSS3)CC2)cc1 (stereo unspecified)")
432
>>> measured_number("O=C(CCCC[C@@H]1CCSS1)N1CCN(Cc2ccccc2)CC1")
204

// switching to the query molecule
Sample O=C(CCCC[C@@H]1CCSS1)OC1CCN(Cc2ccccc2)CC1 — what was its Ratio Ki?
106

---

Documented Activity across a set of compounds
- experiment-description: Cytotoxicity against Sprague-Dawley rat Cerebral cortex neuron assessed as LDH activity at 0.1 uM incubated for 24 hrs by LDH assay (reference value: […])
- Type: tissue-based
Please report the result as a number followed by the unit.

These recorded examples may help you get a feel for the data.
>>> result("O=C(CCCC[C@@H]1CCSS1)OC1CCN(Cc2ccccc2)CC1")
"0.3 mU/ml"
>>> result("O=C(CCCCC1CCSS1)OC1CCN(Cc2ccc(F)cc2)CC1 (centres undefined)")
"0.3 mU/ml"
>>> result("COc1ccc(CN2CCN(C(=O)CCCCC3CCSS3)CC2)cc1 (centres undefined)")
"0.28 mU/ml"

Below: the item to evaluate.
# Activity lookup, item O=C(O)CCCC[C@@H]1CCSS1
0.27 mU/ml

---

- experiment-description: Antioxidant activity in Sprague-Dawley rat Cerebral cortex neuron assessed as total antioxidant capacity by measuring trolox equivalents at 100 uM after 24 hrs
- Assay type: functional
measured-property: TAC (mmol/L)
Just the number please, in mmol/L, no unit attached.

Worked set:
>>> measured_number("O=C(CCCCC1CCSS1)N1CCN(Cc2ccccc2)CC1 (centres undefined)")
14.6
>>> measured_number("O=C(CCCCC1CCSS1)OC1CCN(Cc2ccccc2)CC1 (centres undefined)")
12.5

Query: TAC; subject: O=C(O)CCCC[C@@H]1CCSS1
13.5

---

- experiment-description: Cytotoxicity against rat Sprague-Dawley Cerebral cortex neuron assessed as cell viability at 50 uM incubated for 24 hrs by MTT assay relative to control
- Assay type: tissue-based
- experimental-parameters: cerebral cortex neurons, read-out: Activity
measured-property: viability at 24 h, 50 µM
Could you kindly put the unit after your number?

>>> result("O=C(CCCCC1CCSS1)N1CCN(Cc2ccccc2)CC1 (stereo not drawn)")
"96%"
>>> result("O=C(O)CCCC[C@@H]1CCSS1 [THIOCTIC ACID]")
"96.4%"

Okay, now this compound:
Name the reported viability at 24 h, 50 µM value associated with the compound O=C(CCCCC1CCSS1)OC1CCN(Cc2ccc(F)cc2)CC1 (stereo not drawn)
95.8%

---

- experiment-description: Cytotoxicity against Sprague-Dawley rat Cerebral cortex neuron assessed as LDH activity at 10 uM incubated for 24 hrs by LDH assay
- Format: tissue-based
measured-property: Activity (mU/ml)
Use mU/ml as the unit, but write only the number.

I have this compound here, O=C(O)CCCC[C@@H]1CCSS1 , and I need its recorded Activity.
0.28

What Activity value was documented for this compound, CO[C@@]12[C@H](COC(N)=O)C3=C(C(=O)C(C)=C(N)C3=O)N1C[C@@H]1N[C@@H]12 ?
2.23

What Activity value was documented for this compound, COc1ccc(CN2CCN(C(=O)CCCCC3CCSS3)CC2)cc1 (stereo not given) ?
0.3

Looking for the measured Activity of O=C(CCCCC1CCSS1)N1CCN(Cc2ccccc2)CC1 (stereo not given) , can you help?
0.32

If you can, please state the reported Activity value of COc1ccc(CN2CCC(OC(=O)CCCCC3CCSS3)CC2)cc1 (stereo not given) .
0.34

---

This section presents compounds with their documented viability at 24 h, 50 µM values.
- experiment-description: Cytotoxicity against rat Sprague-Dawley Cerebral cortex neuron assessed as cell viability at 50 uM incubated for 24 hrs by MTT assay relative to control
- Format: tissue-based
- experimental-parameters: cerebral cortex neurons, read-out: Activity
Number in %, nothing else.

Solved entries (count: 5):
>>> measured_number("O=C(CCCC[C@@H]1CCSS1)OC1CCN(Cc2ccccc2)CC1")
97.4
>>> measured_number("COc1ccc(CN2CCC(OC(=O)CCCCC3CCSS3)CC2)cc1 (stereo unspecified)")
95
>>> measured_number("O=C(CCCCC1CCSS1)N1CCN(Cc2ccc(F)cc2)CC1 (stereo unspecified)")
96.5
>>> measured_number("O=C(CCCCC1CCSS1)OC1CCN(Cc2ccccc2)CC1 (stereo unspecified)")
97.6
>>> measured_number("COc1ccc(CN2CCN(C(=O)CCCCC3CCSS3)CC2)cc1 (stereo unspecified)")
92.7

# evaluate next
Data request, read-out viability at 24 h, 50 µM, for O=C(CCCC[C@@H]1CCSS1)N1CCN(Cc2ccccc2)CC1
95.7

---

- experiment-description: Stability of compound in fasted state stimulated intestinal fluid at pH 7.4 assessed as half life in presence of 10 mg/ml pancreatin by HPLC-UV assay
- Type: ADME
- experimental-parameters: fasted state simulated intestinal fluid with pancreatin
measured-property: half-life (h)
Write it as a number; the unit h goes unstated.

>>> measured_number("COc1ccc(CN2CCC(OC(=O)CCCCC3CCSS3)CC2)cc1 (stereo not given)")
2.78
>>> measured_number("O=C(CCCCC1CCSS1)OC1CCN(Cc2ccccc2)CC1 (stereo not given)")
0.29

half-life for COc1ccc(CN2CCN(C(=O)CCCCC3CCSS3)CC2)cc1 (stereo not given) ?
60.9

Quick one: half-life for O=C(CCCCC1CCSS1)N1CCN(Cc2ccc(F)cc2)CC1 (stereo not given) ?
75.1

What value of measured half-life is listed for O=C(CCCCC1CCSS1)N1CCN(Cc2ccccc2)CC1 (stereo not given) ?
22.2

---

Quick reference for Drug degradation among some compounds
- experiment-description: Stability of compound in fasted state stimulated intestinal fluid at pH 7.4 assessed as rate of compound hydrolysis in presence of 10 mg/ml pancreatin by HPLC-UV assay
- Assay type: ADME
- experimental-parameters: simulated gi fluid
Return type: number; implicit unit h⁻¹.

>>> measured_number("O=C(CCCCC1CCSS1)N1CCN(Cc2ccc(F)cc2)CC1 (stereo not given)")
0.009

What value of Drug degradation has been recorded for this entry: O=C(CCCCC1CCSS1)OC1CCN(Cc2ccccc2)CC1 (stereo not given)
2.389

Report Drug degradation for COc1ccc(CN2CCN(C(=O)CCCCC3CCSS3)CC2)cc1 (stereo not given) please.
0.011

So what does the record say about Drug degradation for O=C(CCCCC1CCSS1)N1CCN(Cc2ccccc2)CC1 (stereo not given) ?
0.031

So what does the record say about Drug degradation for COc1ccc(CN2CCC(OC(=O)CCCCC3CCSS3)CC2)cc1 (stereo not given) ?
0.249

---

Examples of compounds with documented half-life follow.
- experiment-description: Stability of compound in rat plasma assessed as half life by HPLC-UV assay
- Type: ADME, cell-free
Numeric only. Scale: h

Examples with answers:
>>> measured_number("COc1ccc(CN2CCN(C(=O)CCCCC3CCSS3)CC2)cc1 (centres undefined)")
4.13
>>> measured_number("O=C(CCCCC1CCSS1)N1CCN(Cc2ccc(F)cc2)CC1 (centres undefined)")
2.92
>>> measured_number("COc1ccc(CN2CCC(OC(=O)CCCCC3CCSS3)CC2)cc1 (centres undefined)")
0.46

Kindly review the next compound as well.
Which measured half-life value corresponds to O=C(CCCCC1CCSS1)OC1CCN(Cc2ccc(F)cc2)CC1 (centres undefined) ?
0.56

---

- experiment-description: Stability of compound in fasted state stimulated intestinal fluid at pH 1.3 assessed as rate of compound hydrolysis in presence of 40 mg/ml pepsin by HPLC-UV assay
- Assay type: ADME
- experimental-parameters: isolated protein
Please note: true (1) applies when Drug degradation is 0.03 h⁻¹ or greater, and false (0) applies otherwise.

Look over these answered cases.
>>> class("O=C(CCCCC1CCSS1)N1CCN(Cc2ccccc2)CC1 (stereo unspecified)")
"false (0)"
>>> class("COc1ccc(CN2CCC(OC(=O)CCCCC3CCSS3)CC2)cc1 (stereo unspecified)")
"true (1)"
>>> class("COc1ccc(CN2CCN(C(=O)CCCCC3CCSS3)CC2)cc1 (stereo unspecified)")
"false (0)"

Tell me whether Drug degradation is at least 0.03 h⁻¹ here: O=C(CCCCC1CCSS1)OC1CCN(Cc2ccccc2)CC1 (stereo unspecified)
false (0)

Form field: Drug degradation at least 0.03 h⁻¹? Entry: O=C(CCCCC1CCSS1)OC1CCN(Cc2ccc(F)cc2)CC1 (stereo unspecified)
true (1)

Textbook exercise: given the entry O=C(CCCCC1CCSS1)N1CCN(Cc2ccc(F)cc2)CC1 (stereo unspecified) , state whether its Drug degradation is greater than or equal to 0.03 h⁻¹.
false (0)
